Parameter melting point: see the listing below.

- c1ccc(C[C@@H]2CN(C3=Nc4ccccc4Sc4ccccc43)CCN2)cc1: 56 to 69 °C

From here, focus on the item given below.
Returns the measured melting point for the input compound. Input: N#Cc1sc2cc(NC(=O)OCc3ccccc3)ccc2c1Cl
155 to 166 °C

----------
Parameter melting point: see the listing below.

See these solved cases before continuing.
• COCOc1ccc(Cl)cc1-c1cc(-c2cccc([N+](=O)[O-])c2)c(C#N)c(NC(=O)c2cccs2)n1 = 161 to 162 °C
• CC(N)=CC(=O)C1=C(C)CCCC1(C)C = 124 to 125 °C
• NC(=O)c1cnc2ccccc2c1 = 132 to 138 °C
• COC(=O)C(=O)c1cc(C(C)(C)C)c(O)c(C(C)(C)C)c1 = 82.5 to 84 °C
• CCCNC1=CC(=O)c2c(OC)ccc(OC)c2C1=O = 175 to 176 °C

Returns the measured melting point for the input molecule. Input: CC(=O)NCCC1CCc2ccc3c(c21)CCO3 (stereo unspecified)
78 to 79 °C

Returns the measured melting point for the input molecule. Input: Fc1ccc(-c2ccc(-c3cc(N4CCNCC4)nnc3C(F)(F)F)cc2)cc1
162 °C

Returns the measured melting point for the input molecule. Input: CCOC(=O)C1=C(C)NC(C)=C(C(=O)OCC)C1c1cccc2nonc12
153 to 155 °C

Returns the measured melting point for the input molecule. Input: Cc1nc(-c2c(F)cccc2Cl)n[nH]1
232 to 233 °C

Returns the measured melting point for the input molecule. Input: O=C(CCc1ccccc1)c1cc2ccncc2[nH]1
246 to 250 °C

----------
Parameter melting point: see the listing below.

Returns the measured melting point for the input compound. Input: CCOC(=O)CCCNc1ccc2oc(-c3ccc4ccc(Cl)cc4n3)cc2c1
154 to 155 °C

Returns the measured melting point for the input compound. Input: CCCCOc1ncc(C(C)=O)cc1-c1nc2c(CC)n(C3CN(C(=O)OC(C)(C)C)C3)nc2c(=O)[nH]1
176 to 178 °C

Returns the measured melting point for the input compound. Input: CC(C)(C)c1nn(-c2cc(F)c(C#N)cc2F)c(=O)o1
137 °C

Returns the measured melting point for the input compound. Input: CC(C)NCCCCCOc1ccc(O)cc1
95 to 99 °C

----------
Parameter melting point: see the listing below.

See these solved cases before continuing.
* C=CCN1N=C(c2ccc(OC)c(OC)c2)[C@@H]2CCCC[C@@H]2C1=O (relative stereo) | 99 to 101 °C
* CCCCNC(=O)CNC(=O)CN1CCCC1=O | 105 to 106 °C
* CC(C)(C)OC(=O)N1CCc2c(oc3cc(S(=O)(=O)c4cccc(F)c4)ccc23)C1(C)C | 58 to 60 °C
* CCCCCCCCCCC[C@@H](C[C@@H]1OC(=O)[C@H]1CCCCCC)OC(=O)[C@H](CC(C)C)NC=O | 44 to 45 °C
* O=C(c1cccnc1)N1N=CCC1c1ccccc1 (stereo unspecified) | 100 to 102 °C
* COC(=O)N[C@H](C(=O)N[C@@H](Cc1ccccc1)[C@@H](O)CN(Cc1ccc(-c2nccs2)cc1)NC(=O)OC(C)(C)C)C(C)C | 178 to 179 °C

Returns the measured melting point for the input molecule. Input: COCCOCCOC(=O)/C=C/C(=O)/C=C/c1cccc(OC)c1
59 to 60 °C

Returns the measured melting point for the input molecule. Input: CCN=C(N)Nc1cnn(C(C)CCC(=N)NNC(C)=O)n1 (stereo unspecified)
136 to 138 °C
